assay-details: Plasma pharmacokinetics of bimiralisib, non-compartmental analysis (LC-MS)
Format: in vivo, human
condition-label: human, plasma, oral, 100 mg, Intermittent Dose Schedule A, 100 mg, Day 8, n = 2; read-out: AUC0–24 Geometric Mean (%CV)
endpoint-name: AUC(0-t) (ng·h/mL)
Give just the number in ng·h/mL; leave the unit off.

Request: Data request, read-out AUC(0-t), for "Nc1cc(C(F)(F)F)c(-c2nc(N3CCOCC3)nc(N3CCOCC3)n2)cn1"
Result: 12400

###

assay-details: Plasma pharmacokinetics of bimiralisib, non-compartmental analysis (LC-MS)
Type: in vivo, human
condition-label: human, plasma, oral, 160 mg, Intermittent Dose Schedule B, 160 mg, Day 8, 3 patients; read-out: Cmax Mean (%CV)
endpoint-name: Cmax (ng/mL)
Give just the number in ng/mL; leave the unit off.

Request: Data request, read-out Cmax, for "Nc1cc(C(F)(F)F)c(-c2nc(N3CCOCC3)nc(N3CCOCC3)n2)cn1"
Result: 325

###

assay-details: Plasma pharmacokinetics of bimiralisib, non-compartmental analysis (LC-MS)
Format: in vivo, human
condition-label: human, plasma, oral, 160 mg, Intermittent Dose Schedule A, 160 mg, Day -3, 3 patients; read-out: AUC0–8 Geometric Mean (%CV)
endpoint-name: AUC(0-t) (ng·h/mL)
Give just the number in ng·h/mL; leave the unit off.

Request: Data request, read-out AUC(0-t), for "Nc1cc(C(F)(F)F)c(-c2nc(N3CCOCC3)nc(N3CCOCC3)n2)cn1"
Result: 2480

###

assay-details: Plasma pharmacokinetics of bimiralisib, non-compartmental analysis (LC-MS)
Assay type: in vivo, human
condition-label: human, plasma, oral, 200 mg, Intermittent Dose Schedule B, 200 mg, Day 1, 4 patients; read-out: AUC0–8 Geometric Mean (%CV)
endpoint-name: AUC(0-t)
Give the value; after it, write the unit.

Request: Data request, read-out AUC(0-t), for Nc1cc(C(F)(F)F)c(-c2nc(N3CCOCC3)nc(N3CCOCC3)n2)cn1 [bimiralisib]
Result: 3190 ng·h/mL

###

assay-details: Plasma pharmacokinetics of bimiralisib, non-compartmental analysis (LC-MS)
Format: in vivo, human
condition-label: human, plasma, oral, 140 mg, Intermittent Dose Schedule B, 140 mg, Day 8, 3 patients; read-out: Tmax Median, (Range)
endpoint-name: Tmax (h)
Give just the number in h; leave the unit off.

Request: Data request, read-out Tmax, for "Nc1cc(C(F)(F)F)c(-c2nc(N3CCOCC3)nc(N3CCOCC3)n2)cn1"
Result: 1

###

assay-details: Plasma pharmacokinetics of bimiralisib, non-compartmental analysis (LC-MS)
Assay type: in vivo, human
condition-label: human, plasma, oral, 200 mg, Intermittent Dose Schedule A, 200 mg, Day -3, 4 patients; read-out: AUC0–24 Geometric Mean (%CV)
endpoint-name: AUC(0-t) (ng·h/mL)
Give just the number in ng·h/mL; leave the unit off.

Request: Data request, read-out AUC(0-t), for "Nc1cc(C(F)(F)F)c(-c2nc(N3CCOCC3)nc(N3CCOCC3)n2)cn1"
Result: 7050

###

assay-details: Plasma pharmacokinetics of bimiralisib, non-compartmental analysis (LC-MS)
Type: in vivo, human
condition-label: human, plasma, oral, 120 mg, Intermittent Dose Schedule B, 120 mg, Day 8, 3 patients; read-out: AUC0–8 Geometric Mean (%CV)
endpoint-name: AUC(0-t) (ng·h/mL)
Give just the number in ng·h/mL; leave the unit off.

Request: Data request, read-out AUC(0-t), for "Nc1cc(C(F)(F)F)c(-c2nc(N3CCOCC3)nc(N3CCOCC3)n2)cn1"
Result: 2210

###

assay-details: Plasma pharmacokinetics of bimiralisib, non-compartmental analysis (LC-MS)
Assay type: in vivo, human
condition-label: human, plasma, oral, 200 mg, Intermittent Dose Schedule A, 200 mg, Day -3, 4 patients; read-out: AUC0–8 Geometric Mean (%CV)
endpoint-name: AUC(0-t) (ng·h/mL)
Give just the number in ng·h/mL; leave the unit off.

Request: Data request, read-out AUC(0-t), for "Nc1cc(C(F)(F)F)c(-c2nc(N3CCOCC3)nc(N3CCOCC3)n2)cn1"
Result: 3480

###

assay-details: Plasma pharmacokinetics of bimiralisib, non-compartmental analysis (LC-MS)
Format: in vivo, human
condition-label: human, plasma, oral, 80 mg, Intermittent Dose Schedule A, 80 mg, Day 8, 3 patients; read-out: Cmax Mean (%CV)
endpoint-name: Cmax (ng/mL)
Give just the number in ng/mL; leave the unit off.

Request: Data request, read-out Cmax, for "Nc1cc(C(F)(F)F)c(-c2nc(N3CCOCC3)nc(N3CCOCC3)n2)cn1"
Result: 614

###

assay-details: Plasma pharmacokinetics of bimiralisib, non-compartmental analysis (LC-MS)
Format: in vivo, human
condition-label: human, plasma, oral, 80 mg, Intermittent Dose Schedule A, 80 mg, Day -3, 4 patients; read-out: Tmax Median, (Range)
endpoint-name: Tmax (h)
Give just the number in h; leave the unit off.

Request: Data request, read-out Tmax, for "Nc1cc(C(F)(F)F)c(-c2nc(N3CCOCC3)nc(N3CCOCC3)n2)cn1"
Result: 1.5

###

assay-details: Plasma pharmacokinetics of bimiralisib, non-compartmental analysis (LC-MS)
Assay type: in vivo, human
condition-label: human, plasma, oral, 80 mg, Intermittent Dose Schedule A, 80 mg, Day -3, 4 patients; read-out: AUC0–8 Geometric Mean (%CV)
endpoint-name: AUC(0-t) (ng·h/mL)
Give just the number in ng·h/mL; leave the unit off.

Request: Data request, read-out AUC(0-t), for Nc1cc(C(F)(F)F)c(-c2nc(N3CCOCC3)nc(N3CCOCC3)n2)cn1 [bimiralisib]
Result: 1580

###

assay-details: Plasma pharmacokinetics of bimiralisib, non-compartmental analysis (LC-MS)
Assay type: in vivo, human
condition-label: human, plasma, oral, 120 mg, Intermittent Dose Schedule A, 120 mg, Day -3, 4 patients; read-out: AUC0–24 Geometric Mean (%CV)
endpoint-name: AUC(0-t) (ng·h/mL)
Give just the number in ng·h/mL; leave the unit off.

Request: Data request, read-out AUC(0-t), for "Nc1cc(C(F)(F)F)c(-c2nc(N3CCOCC3)nc(N3CCOCC3)n2)cn1"
Result: 5590

###

assay-details: Plasma pharmacokinetics of bimiralisib, non-compartmental analysis (LC-MS)
Format: in vivo, human
condition-label: human, plasma, oral, 80 mg, Intermittent Dose Schedule B, 80 mg, Day 1, 4 patients; read-out: Cmax Mean (%CV)
endpoint-name: Cmax (ng/mL)
Give just the number in ng/mL; leave the unit off.

Request: Data request, read-out Cmax, for "Nc1cc(C(F)(F)F)c(-c2nc(N3CCOCC3)nc(N3CCOCC3)n2)cn1"
Result: 341

###

assay-details: Plasma pharmacokinetics of bimiralisib, non-compartmental analysis (LC-MS)
Format: in vivo, human
condition-label: human, plasma, oral, 80 mg, Intermittent Dose Schedule A, 80 mg, Day -3, 4 patients; read-out: AUC0–24 Geometric Mean (%CV)
endpoint-name: AUC(0-t) (ng·h/mL)
Give just the number in ng·h/mL; leave the unit off.

Request: Data request, read-out AUC(0-t), for "Nc1cc(C(F)(F)F)c(-c2nc(N3CCOCC3)nc(N3CCOCC3)n2)cn1"
Result: 3540

###

assay-details: Plasma pharmacokinetics of bimiralisib, non-compartmental analysis (LC-MS)
Assay type: in vivo, human
condition-label: human, plasma, oral, 200 mg, Intermittent Dose Schedule A, 200 mg, Day -3, 4 patients; read-out: Cmax Mean (%CV)
endpoint-name: Cmax (ng/mL)
Give just the number in ng/mL; leave the unit off.

Request: Data request, read-out Cmax, for "Nc1cc(C(F)(F)F)c(-c2nc(N3CCOCC3)nc(N3CCOCC3)n2)cn1"
Result: 1030

###

assay-details: Plasma pharmacokinetics of bimiralisib, non-compartmental analysis (LC-MS)
Assay type: in vivo, human
condition-label: human, plasma, oral, 200 mg, Intermittent Dose Schedule B, 200 mg, Day 8, n = 3; read-out: AUC0–24 Geometric Mean (%CV)
endpoint-name: AUC(0-t)

Request: Data request, read-out AUC(0-t), for Nc1cc(C(F)(F)F)c(-c2nc(N3CCOCC3)nc(N3CCOCC3)n2)cn1 [bimiralisib]
Result: 14700 ng·h/mL

###

assay-details: Plasma pharmacokinetics of bimiralisib, non-compartmental analysis (LC-MS)
Type: in vivo, human
condition-label: human, plasma, oral, 140 mg, Intermittent Dose Schedule A, 140 mg, Day -3, 6 patients; read-out: Tmax Median, (Range)
endpoint-name: Tmax (h)
Give just the number in h; leave the unit off.

Request: Data request, read-out Tmax, for "Nc1cc(C(F)(F)F)c(-c2nc(N3CCOCC3)nc(N3CCOCC3)n2)cn1"
Result: 1

###

assay-details: Plasma pharmacokinetics of bimiralisib, non-compartmental analysis (LC-MS)
Type: in vivo, human
condition-label: human, plasma, oral, 80 mg, Intermittent Dose Schedule B, 80 mg, Day 1, 4 patients; read-out: AUC0–8 Geometric Mean (%CV)
endpoint-name: AUC(0-t) (ng·h/mL)
Give just the number in ng·h/mL; leave the unit off.

Request: Data request, read-out AUC(0-t), for Nc1cc(C(F)(F)F)c(-c2nc(N3CCOCC3)nc(N3CCOCC3)n2)cn1 [bimiralisib]
Result: 1680
